# Tested on: 168753-222-R-J1-PDC complex spheroid viability;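 further: luminescence signal used as surrogate for viable cell amount; viability measured after seven days of drug exposure; 100% = DMSO vehicle control wells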
# procedure_text: Anticancer human tumor 168753-222-R-J1-PDC patient-derived bladder carcinoma cell line growth inhibition [CLK]
# experimental_parameters: second compound 1 µM; first compound 0.1 µM; stronger effect = lower value
# Description: A high-throughput screen of multi-cell type tumor spheroids was designed to identify active combinations of […] and targeted small molecules. Complex spheroids include a stromal component modeled by human endothelial cells (HUVEC) and fibroblasts modeled by human mesenchymal stem cells (MSCs). […] Compounds. […] If the clinical Cmax for an agent had not been determined, the highest concentration tested was 10 microM. […]

compound | viability, T/C (%)
CC1(C)CCC(CN2CCN(c3ccc(C(=O)NS(=O)(=O)c4ccc(NCC5CCOCC5)c([N+](=O)[O-])c4)c(Oc4cnc5[nH]ccc5c4)c3)CC2)=C(c2ccc(Cl)cc2)C1 + CN1CCN(c2cc(C(=O)Nc3cc4cc(-c5cnn(C)c5)ccc4cn3)ccn2)CC1 | 0.31
Cn1ncnc1[C@H]1c2n[nH]c(=O)c3cc(F)cc(c23)N[C@@H]1c1ccc(F)cc1 + CN1CCN(c2cc(C(=O)Nc3cc4cc(-c5cnn(C)c5)ccc4cn3)ccn2)CC1 | 0.51
O=c1[nH]cc(F)c(=O)[nH]1 + CN1CCN(c2cc(C(=O)Nc3cc4cc(-c5cnn(C)c5)ccc4cn3)ccn2)CC1 | 0.19
